experiment: Affinity constant log K2 value for Fe(III) complex; format: ADME
Exercise: state measured Log K2 for each of the compounds provided.
Just the number, please, no unit after it.

Asked: Log K2 for `O=c1ccn(CCCO)c(CO)c1O` ?
Given back: 10.01

Asked: Next record, please: CCn1ccc(=O)c(O)c1C(C)O (stereo unspecified)
Given back: 10.97

Asked: Next record, please: CCC(O)c1c(O)c(=O)cc(C)n1C (stereo unspecified)
Given back: 11.48

Asked: Next record, please: CC(O)c1c(O)c(=O)ccn1CCCO (stereo unspecified)
Given back: 10.87

Asked: Next record, please: `CCc1c(O)c(=O)ccn1CC`
Given back: 11.76

Asked: Next record, please: `Cn1ccc(=O)c(O)c1CO`
Given back: 11.27

Asked: Next record, please: `Cc1cc(=O)c(O)c(CO)n1C`
Given back: 11.57

Asked: Next record, please: Cc1c(O)c(=O)ccn1C [DEFERIPRONE]
Given back: 12.19

Asked: Next record, please: Cc1cc(=O)c(O)c(C(C)O)n1C (stereo unspecified)
Given back: 11.09

Asked: Next record, please: `CCn1ccc(=O)c(O)c1CO`
Given back: 11.16

Asked: Next record, please: `CCn1c(C)cc(=O)c(O)c1CO`
Given back: 11.6

====

test system: Rattus norvegicus; experiment: Compound was tested in vivo for Iron mobilization against hepatocytes in normal fasted rats (loaded with [59Fe]-Ferritin).; assay type: functional, Hepatocyte
Exercise: state measured Iron mobilization for each of the compounds provided.
Please state the value followed by its unit.

Asked: Iron mobilization for `O=c1ccn(CCCO)c(CO)c1O` ?
Given back: 11.7%

Asked: Next record, please: `Cn1ccc(=O)c(O)c1CO`
Given back: 8.44%

Asked: Next record, please: CC(O)c1c(O)c(=O)ccn1CCCO (stereo not drawn)
Given back: 14.5%

Asked: Next record, please: `O=C(OCCCn1ccc(=O)c(O)c1CO)c1ccccc1`
Given back: 56%

Asked: Next record, please: `Cc1cc(=O)c(O)c(CO)n1C`
Given back: 4.5%

Asked: Next record, please: `CCn1c(C)cc(=O)c(O)c1CO`
Given back: 12.9%

Asked: Next record, please: Cc1cc(=O)c(O)c(C(C)O)n1C (stereo not drawn)
Given back: 48.4%

Asked: Next record, please: CCC(O)c1c(O)c(=O)cc(C)n1C (stereo not drawn)
Given back: 60.4%

====

Exercise: state measured Log K3 for each of the compounds provided.
assay: Affinity constant log K3 value for Fe(III) complex; type: ADME
Just the number, please, no unit after it.

Asked: Log K3 for `Cc1c(O)c(=O)ccn1C` ?
Given back: 9.69

Asked: Next record, please: `Cc1cc(=O)c(O)c(CO)n1C`
Given back: 9.55

Asked: Next record, please: Cc1cc(=O)c(O)c(C(C)O)n1C (stereo unspecified)
Given back: 9.05

Asked: Next record, please: CC(O)c1c(O)c(=O)ccn1CCCO (stereo unspecified)
Given back: 8.87

Asked: Next record, please: `CCc1c(O)c(=O)ccn1CC`
Given back: 9.84

Asked: Next record, please: CCn1ccc(=O)c(O)c1C(C)O (stereo unspecified)
Given back: 8.9

Asked: Next record, please: CCC(O)c1c(O)c(=O)cc(C)n1C (stereo unspecified)
Given back: 9.05

Asked: Next record, please: `CCn1ccc(=O)c(O)c1CO`
Given back: 9.43

Asked: Next record, please: `Cn1ccc(=O)c(O)c1CO`
Given back: 9.58

Asked: Next record, please: `O=c1ccn(CCCO)c(CO)c1O`
Given back: 9.57

Asked: Next record, please: `CCn1c(C)cc(=O)c(O)c1CO`
Given back: 9.64
